These data points were gathered from ChEMBL document CHEMBL5500403.

Exercise: for every item that follows, state its recorded selectivity ratio.
# PROTOCOL TEXT: Selectivity index, ratio of CC50 for cytotoxicity against human MT2 cells to IC50 for antiviral activity against HIV-1 IIIB infected in human MT2 cells
# Assay type: toxicity, cell-based
# ASSAY CONDITIONS: read-out: Ratio CC50/IC50
Bridge positions count the residues as written; N and C are the ends. Square brackets hold non-standard residues; d marks the D form. Peptide text beside a SMILES is read from it. S5 = C=CCCC[C@](C)(N)C(=O)O
Output spec: single numeric token, no unit.

For the molecule CC(=O)NCC(=O)N[C@@]1(C)CCC/C=C\CCC[C@@](C)(C(=O)N[C@@H](Cc2ccc(O)cc2)C(=O)N[C@@H](CC(C)C)C(=O)N[C@@H](Cc2c[nH]c3ccccc23)C(=O)N[C@@H](CC(N)=O)C(=O)N[C@@H](CC(C)C)C(=O)N[C@@H](CC(C)C)C(=O)N[C@@H](CCC(N)=O)C(=O)N[C@@H](Cc2ccc(O)cc2)C(=O)N[C@@H](Cc2c[nH]c3ccccc23)C(N)=O)NC(=O)[C@H](CC(C)C)NC(=O)[C@H](C)NC(=O)[C@H](CCC(=O)O)NC1=O (Ac-G[S5]EAL[S5]YLWNLLQYW-NH2; staple (Z) 2-6) , what selectivity ratio is on record?
59.3

For the molecule CC(=O)NCC(=O)N[C@@]1(C)CCC/C=C\CCC[C@@](C)(C(=O)N[C@@H](Cc2ccc(O)cc2)C(=O)N[C@@H](CC(C)C)C(=O)N[C@@]2(C)CCC/C=C\CCC[C@@](C)(C(=O)N[C@@H](Cc3ccc(O)cc3)C(=O)N[C@@H](Cc3c[nH]c4ccccc34)C(N)=O)NC(=O)[C@H](CC(C)C)NC(=O)[C@H](CC(C)C)NC(=O)[C@H](CC(N)=O)NC2=O)NC(=O)[C@H](CC(C)C)NC(=O)[C@H](C)NC(=O)[C@H](CCC(=O)O)NC1=O (Ac-G[S5]EAL[S5]YL[S5]NLL[S5]YW-NH2; staple (Z) 2-6, 9-13) , what selectivity ratio is on record?
216

For the molecule CC(=O)NCC(=O)N[C@@H](Cc1c[nH]c2ccccc12)C(=O)N[C@@H](CCC(=O)O)C(=O)N[C@@H](C)C(=O)N[C@@H](CC(C)C)C(=O)N[C@@H](CCCCN)C(=O)N[C@@H](Cc1ccc(O)cc1)C(=O)N[C@@]1(C)CCC/C=C\CCC[C@@](C)(C(=O)N[C@@H](CCC(N)=O)C(=O)N[C@@H](Cc2ccc(O)cc2)C(=O)N[C@@H](Cc2c[nH]c3ccccc23)C(N)=O)NC(=O)[C@H](CC(C)C)NC(=O)[C@H](CC(N)=O)NC(=O)[C@H](Cc2c[nH]c3ccccc23)NC1=O (Ac-GWEALKY[S5]WNL[S5]QYW-NH2; staple (Z) 8-12) , what selectivity ratio is on record?
26.1

For the molecule CC(=O)NCC(=O)N[C@@H](Cc1c[nH]c2ccccc12)C(=O)N[C@@H](CCC(=O)O)C(=O)N[C@@]1(C)CCC/C=C\CCC[C@@](C)(C(=O)N[C@@H](Cc2c[nH]c3ccccc23)C(=O)N[C@@H](CC(N)=O)C(=O)N[C@@H](CC(C)C)C(=O)N[C@@H](CC(C)C)C(=O)N[C@@H](CCC(N)=O)C(=O)N[C@@H](Cc2ccc(O)cc2)C(=O)N[C@@H](Cc2c[nH]c3ccccc23)C(N)=O)NC(=O)[C@H](Cc2ccc(O)cc2)NC(=O)[C@H](CCCCN)NC(=O)[C@H](CC(C)C)NC1=O (Ac-GWE[S5]LKY[S5]WNLLQYW-NH2; staple (Z) 4-8) , what selectivity ratio is on record?
52.5
